# study system: cynomolgus TCRvβ (BJM0847) (cynomolgus)
# experiment: SPR (Biacore): antibody captured on Protein L chip, BJM0847 as analyte, 1:1 fit
observable: pKd
// field semantics: pKd = negative decimal log of concentration (mol/L)

Before answering, review these 2 worked examples.
binder="BJM0899 (antibody, V domains shown) VH: QVQLVQSGAEVKKPGSSVKVSCKASGHDFRLTYIHWVRQAPGQGLEWMGRISAGSGNVKYNEKFKGRVTITADTSTSTAYMELSSLRSEDTAVYYCAGSYYSYDVLDYWGQGTTVTVSS VL: DIQMTQSPSFLSASVGDRVTITCKASQNVADRVAWYQQKPGKAPKALIYSSSHRYKGVPSRFSGSGSGTEFTLTISSLQPEDFATYFCQQFKSYPLTFGQGTKLEIK" observable=pKd obs_value=6.89
binder="A-H.64 (scFv) scFv: QVQLVQSGAEVKKPGSSVKVSCKASGHDFKLTYIHWVRQAPGQGLEWMGRVSAGSGNTKYNEKFKGRVTITADTSTSTAYMELSSLRSEDTAVYYCAVSYYSYDVLDYWGQGTTVTVSSGGGGSGGGGSGGGGSGGGGSDIQMTQSPSFLSASVGDRVTITCKASQNVADRVVWHQQKPGKAPKALIYSSSHRYKGVPSRFSGSGSGTEFTLTISSLQPEDFATYFCQQFKSYPLTFGQGTKLEIK" observable=pKd obs_value=9.00

Next binder, pKd to be filled in.
Q) Name the recorded pKd of the item A-H.63 (scFv) scFv: QVQLVQSGAEVKKPGSSVKVSCKASGHDFRLTYIHWVRQAPGQGLEWMGRVYAGSGNTKYNEKFKGRVTITADTSTSTAYMELSSLRSEDTAVYYCAVSYYSYDVLDYWGQGTTVTVSSGGGGSGGGGSGGGGSGGGGSDIQMTQSPSFLSASVGDRVTITCKASQNVEDRVVWHQQKPGKAPKALIYSSSHRYKGVPSRFSGSGSGTEFTLTISSLQPEDFATYFCQQFKSYPLTFGQGTKLEIK in your answer.
A) 8.24
